System: HDQ-P1
Assay: normalised viability (% of control), CellTiter-Blue; higher = more viable cells (about 100 = DMSO control)
Details: incubation time: 72 h
Rule: normalised viability below 60% gives met, anything at or above gives not met.

Example results:
INSERT INTO assay_data (compound, cat) VALUES
  ('Cc1ccc(Nc2nccc(N(C)c3ccc4c(C)n(C)nc4c3)n2)cc1S(N)(=O)=O [Pazopanib] (3000 nM)', 'not met'),
  ('O=C(NC[C@H](O)CO)c1ccncc1Nc1ccc(I)cc1F (3000 nM)', 'met'),
  ('Nc1ccccc1NC(=O)c1ccc(CNc2nccc(-c3cccnc3)n2)cc1 [Mocetinostat] (3000 nM)', 'not met'),
  ('CO[C@@H](C(=O)N1Cc2[nH]nc(NC(=O)c3ccc(N4CCN(C)CC4)cc3)c2C1)c1ccccc1 [Danusertib] (3000 nM)', 'met');

stdin: Please let me know if Cn1cc(CNCC2CCN(c3ncc(C(=O)NO)cn3)CC2)c2ccccc21 (300 nM) shows normalised viability below 60%.
stdout: met

stdin: Please let me know if CCC/C=C/C=C/C(=O)O[C@H]1/C(=C/C(=O)OC)C[C@H]2C[C@H]([C@@H](C)O)OC(=O)C[C@H](O)C[C@@H]3C[C@H](OC(C)=O)C(C)(C)[C@](O)(C[C@@H]4C/C(=C/C(=O)OC)C[C@H](/C=C/C(C)(C)[C@]1(O)O2)O4)O3 [Bryostatin 1] (30 nM) shows normalised viability below 60%.
stdout: not met
